# credit: PubChem BioAssay AID743398

Hi there, I'd appreciate the recorded activation for every entry that follows.
Assay: Wnt/beta-catenin pathway activators, primary screen, cell-based, plate reader, single point (AID 743398);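 also: 0% = neutral control wells and 100% = positive control wells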
Settings: Wnt/beta-catenin reporter cell assay, activator, at 9.35 µM, stronger effect = higher value
In all, about 300,000 compounds went through this assay and about 3,600 (1.2%) were called active. This excerpt belongs to a sample that is enriched for actives.
One number for each entry, in %.

Check out these entries, answers already filled in.
Cc1ccc2nc(-c3ccc(NC(=O)c4cccnc4)cc3)oc2c1; 4.47
Cc1ccc2nc(-c3ccco3)c(Cc3cccc(Cl)c3)n2c1; -1.15
O=C(c1ccc(Cl)cc1)n1cnc2ccccc21; 0.992
Cc1ccc(S(=O)(=O)N2CC3C(=O)C[C@@H](c4ccccc4Cl)N(S(=O)(=O)c4ccc(C)cc4)C3CC2c2ccccc2)cc1 (some centres not stated); -1.39
Cc1ccc(S(=O)(=O)N2CCN(C(=O)Cn3c(=O)cnc4ccccc43)CC2)c(C)c1; 68.6
COC(=O)c1cc2c(c3c4ccccc4n(S(=O)(=O)c4cccc(C)c4)c13)C(=O)N(Cc1ccccc1)C2; -4.66
O=C(COC(=O)c1ccccc1)c1ccc2c(c1)OCCO2; -3.49
O=C(COC(=O)c1ccc(O)cc1O)NC(=O)c1ccccc1; -3.61

State recorded activation for all listed compounds.
1. COc1cccc(-c2nc3nc(C)cc(C)n3c2NC2CCCCC2)c1
2. CC(=O)Nc1ccc(-c2nc3ccccc3o2)cc1
3. C#CCN([C@@H](C)C(=O)OCC)S(=O)(=O)c1ccc(Br)cc1F

5.8
62
-2.08

State recorded activation for all listed compounds.
1. CCc1nc2c(OCCOc3ccccc3)cccn2c1N(C)C(=O)c1cccs1
2. O=C(COC(=O)c1ccc(O)cc1O)c1ccc2c(c1)OCCO2
3. Cc1ccc(S(=O)(=O)N2CCN(C(=O)CSc3cc(C)ccc3C)CC2)c(C)c1
4. Cn1c(CCN2CCN(c3ccccn3)CC2)nc2cc(NS(=O)(=O)c3ccc(F)cc3)ccc21

-2.69
53.6
-0.764
-2.6

State recorded activation for all listed compounds.
1. Oc1ccc(CN2CCN(c3ncccn3)CC2)cc1
2. CC(NC(=O)COC(=O)c1cc(=O)[nH]c2ccccc12)c1ccccc1 (configuration not stated)
3. COC(=O)c1ccc(-n2cnc3ccccc32)nc1

1. -0.601
2. -11.1
3. 41.6
